# Test system: L. lactis IL1403
# protocol-summary: Antimicrobial activity (halo of inhibition on petri dishes) of cell-free produced, intein-circularized bacteriocins against indicator L. lactis IL1403
# Type: cell-based, Lactococcus lactis
# Parameters: key: +: Bacteriocins showing a halo of inhibition against at least one of the indicators were considered as positive
# condition-parameters: bacteriocins circularized with inteins; cell free production and overnight incubation at room temperature
metric: Antimicrobial activity, Indicator L. lactis IL1403

DSM 15102: putative circular bacteriocin of Garciella nitratireducens DSM 15102; SEQ ID NO: 832 circularized with Npu split intein (protein, listed as Garciella nitratireducens, circularized via Npu split intein; Bacteriocin DSM 15102; Strain DSM 15102) SMLGISTVAAKKVIDIIDTASTVATIISLIGVIVGVGGITAGLVTTAKAMIKKYGKKYATMWLA
+

Source listed as patent US20250346639A1.
